Target: Peroxisome proliferator-activated receptor alpha (Homo sapiens)
Sequence (Q07869 whole entry): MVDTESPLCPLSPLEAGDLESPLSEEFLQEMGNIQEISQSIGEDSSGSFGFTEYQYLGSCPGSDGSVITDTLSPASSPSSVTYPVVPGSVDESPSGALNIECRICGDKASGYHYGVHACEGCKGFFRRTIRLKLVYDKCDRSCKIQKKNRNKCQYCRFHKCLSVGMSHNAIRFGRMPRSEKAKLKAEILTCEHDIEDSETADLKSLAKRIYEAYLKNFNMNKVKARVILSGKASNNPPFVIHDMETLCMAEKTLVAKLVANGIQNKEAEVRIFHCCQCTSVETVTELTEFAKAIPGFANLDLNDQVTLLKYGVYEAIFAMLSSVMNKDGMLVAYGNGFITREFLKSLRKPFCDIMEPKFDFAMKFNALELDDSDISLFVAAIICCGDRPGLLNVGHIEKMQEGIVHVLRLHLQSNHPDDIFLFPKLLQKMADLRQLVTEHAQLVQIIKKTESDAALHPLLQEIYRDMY
Assay: Binding affinity to human PPAR alpha
# strict inequality: IC50 < 40 nM yields label 1, everything else yields label 0

| COMPOUND | CATEGORY LABEL |
| --- | --- |
| O=C(O)CCc1ccc(OCCCOc2ccc(Oc3ccc(F)cc3)cc2Cl)cc1 | label 0 |
| CC[C@@](C)(Cc1ccc(OCCCOc2ccccc2Cl)cc1)C(=O)O | label 0 |
| CC[C@@](C)(Cc1ccc(OCCCOc2ccc(CC(F)(F)F)cc2Cl)cc1)C(=O)O | label 1 |
| CCC(CC)(Oc1ccc(OCCCOc2ccc(Oc3ccc(F)cc3)cc2Cl)cc1)C(=O)O | label 1 |
| CC[C@](C)(Oc1ccc(OCCCOc2ccc(Oc3ccc(F)cc3)cc2Cl)cc1)C(=O)O | label 1 |
| CC[C@@](C)(Oc1ccc(OCCCOc2ccc3c(C(F)(F)F)cc(=O)oc3c2Cl)cc1)C(=O)O | label 0 |
| CC(Cc1ccc(OCCCOc2ccc(Oc3ccc(F)cc3)cc2Cl)cc1)C(=O)O (stereo not drawn) | label 0 |
| CCC(Cc1ccc(OCCCOc2ccc(Oc3ccc(F)cc3)cc2Cl)cc1)C(=O)O (stereo not drawn) | label 0 |
